# credit: paper PMC4450297

# Test system: J82
# METHOD SUMMARY: Cell panel screen (CellTiter-Glo)
# Format: cell-based, human
# MEASUREMENT CONDITIONS: Homo sapiens; J82 (Urinary bladder), 20 micromolar, 72 hrs; read-out: Percent Inhibition
MEASUREMENT TYPE: inhibition at 20 µM

For CC(C)=CCC/C(C)=C/Cc1c(O)c(CC=C(C)C)c2c(c1O)C(=O)C1=C[C@@H]3C[C@H]4C(C)(C)O[C@@](C/C=C(\C)C=O)(C3=O)[C@@]14O2 [GB49] on J82, measured inhibition at 20 µM was 98%

---

Entries and their inhibition at 20 µM values follow.
# Tested on: HCC1937
# METHOD SUMMARY: Cell panel screen (CellTiter-Glo)
# Assay type: cell-based, human
# MEASUREMENT CONDITIONS: Homo sapiens; HCC1937 (Breast), 20 micromolar, 72 hrs; read-out: Percent Inhibition
Just the number please, in %, no unit attached.

Documented inhibition at 20 µM of CC(C)=CCC/C(C)=C/Cc1c(O)c(CC=C(C)C)c2c(c1O)C(=O)C1=C[C@@H]3C[C@H]4C(C)(C)O[C@@](C/C=C(\C)C=O)(C3=O)[C@@]14O2 : 99

Documented inhibition at 20 µM of CC(C)=CCC/C(C)=C/Cc1c(O)c(CC=C(C)C)c2c(c1O)C(=O)C1=C[C@@H]3C[C@H]4C(C)(C)O[C@@](C/C=C(\C)C(=O)O)(C3=O)[C@@]14O2 : 100

Continuing:
Documented inhibition at 20 µM of CC(C)=CCc1c(O)cc2oc3c(CC=C(C)C)c(O)c(O)c(CC=C(C)C)c3c(=O)c2c1O : 97

Documented inhibition at 20 µM of CC(C)=CCC[C@@]1(C)C=Cc2c(O)c3c(c(C/C=C(\C)CO)c2O1)O[C@]12C(=C[C@@H]4C[C@H]1C(C)(C)O[C@@]2(C/C=C(/C)C(=O)O)C4=O)C3=O [GB40, 35-hydroxyepigambogic acid] : 99

Documented inhibition at 20 µM of CC(C)=CCC[C@@]1(C)C=Cc2c(O)c3c(c(CCC(C)(C)O)c2O1)O[C@]12C(=C[C@@H]4C[C@H]1C(C)(C)O[C@@]2(C/C=C(/C)C(=O)O)C4=O)C3=O [GB39, 33-hydroxyepigambogic acid] : 100
